From: patent US11590116B2

- system-under-test: recombinant human ALK5 (TGF-βR1) protein (Homo sapiens, UniProt P36897)
- Construct: purchased Life Technologies PR9075A
- Sequence (P36897 34-503): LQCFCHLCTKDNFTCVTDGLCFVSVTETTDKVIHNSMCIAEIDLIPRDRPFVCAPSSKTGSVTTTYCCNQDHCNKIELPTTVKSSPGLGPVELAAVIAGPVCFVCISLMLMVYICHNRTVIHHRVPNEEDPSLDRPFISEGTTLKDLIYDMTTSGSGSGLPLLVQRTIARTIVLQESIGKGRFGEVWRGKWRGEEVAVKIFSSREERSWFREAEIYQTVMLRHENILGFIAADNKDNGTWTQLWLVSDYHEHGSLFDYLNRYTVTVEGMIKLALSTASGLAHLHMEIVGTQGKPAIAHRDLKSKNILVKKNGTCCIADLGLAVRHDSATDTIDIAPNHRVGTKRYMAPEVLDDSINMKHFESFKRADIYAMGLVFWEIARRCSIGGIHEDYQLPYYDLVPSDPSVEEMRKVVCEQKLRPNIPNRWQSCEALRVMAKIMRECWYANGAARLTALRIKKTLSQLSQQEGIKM
- assay-explanation: Biochemical ALK5 (TGF-βR1) assay to measure pKi (LANCE Ultra ULight kinase assay)
- details: apparent pKi from pIC50 by Cheng-Prusoff, read-out: ALK5 pKi (converted)
Entries and their measured Ki follow.

Cc1cccc(-c2[nH]cnc2-c2ccc3ncc(NC4CNC4)cc3c2)n1 [Compound 50]: 39.8 to 316 pM
Cc1cccc(-c2n[nH]cc2-c2ccc3nccc(C(=O)NCCCCC(NC(=O)CN)C(=O)O)c3n2)n1 (racemic) [Compound 805]: 398 to 3160 pM

Query :: Param request: Ki | system recombinant human ALK5 (TGF-βR1) protein (Homo sapiens, UniProt P36897) | item Cc1cccc(-c2n[nH]cc2-c2ccc3ncc(N4CC(N(C)C)C4)cc3n2)n1 [Compound 368]
Result :: < 31.6 pM

Query :: # assay system recombinant human ALK5 (TGF-βR1) protein (Homo sapiens, UniProt P36897): give Ki of Cc1cccc(-c2[nH]cnc2-c2ccc3ncc(C4=CCC(NC(C)C)CC4)cc3c2)n1 (stereo not shown) [Compound 540]
Result :: < 31.6 pM

Query :: Send back recombinant human ALK5 (TGF-βR1) protein (Homo sapiens, UniProt P36897) Ki of Cc1cccc(-c2[nH]cnc2-c2ccc3ncc(C4=CCC5(CCNCC5)CC4)cc3c2)n1 [Compound 392] only.
Result :: 39.8 to 316 pM

Query :: Provide measured Ki on recombinant human ALK5 (TGF-βR1) protein (Homo sapiens, UniProt P36897) for Cc1cccc(-c2[nH]ncc2-c2ccc3ncc(C(=O)O[C@H]4CC[C@](C)(N)CC4)cc3c2)n1 [Compound 1196] please.
Result :: 39.8 to 316 pM

Query :: Lab note: record Ki of Cc1cccc(-c2n[nH]cc2-c2ccc3ncc(N[C@@]45C[C@@H]6C[C@@H](C[C@@](N)(C6)C4)C5)cc3n2)n1 [Compound 297] tested on recombinant human ALK5 (TGF-βR1) protein (Homo sapiens, UniProt P36897).
Result :: 3980 to 31600 pM

Query :: Answer with Ki of Cc1nc(-c2n[nH]cc2-c2ccc3ncc(-c4ncn5c4CNCC5)cc3n2)ccc1F [Compound 107] measured for recombinant human ALK5 (TGF-βR1) protein (Homo sapiens, UniProt P36897).
Result :: 39.8 to 316 pM

Query :: Send back recombinant human ALK5 (TGF-βR1) protein (Homo sapiens, UniProt P36897) Ki of Cc1cccc(-c2n[nH]cc2-c2ccc3ncc(-c4[nH]nc5c4CCN5)cc3n2)n1 [Compound 393] only.
Result :: < 31.6 pM

Query :: Specify the recorded Ki for Cc1cccc(-c2n[nH]cc2-c2ccc3nccc(-c4cnoc4)c3n2)n1 [Compound 832] , system: recombinant human ALK5 (TGF-βR1) protein (Homo sapiens, UniProt P36897).
Result :: 39.8 to 316 pM

Query :: Would you please give the reported Ki of CNC1CN(c2cnc3ccc(-c4nc[nH]c4-c4cccc(C)n4)cc3c2)C1 [Compound 614] with recombinant human ALK5 (TGF-βR1) protein (Homo sapiens, UniProt P36897)?
Result :: 39.8 to 316 pM

Query :: Retrieve Ki on recombinant human ALK5 (TGF-βR1) protein (Homo sapiens, UniProt P36897); query Cc1nc(-c2nc3ccccn3c2-c2ccc3ncc(N4CCC(N(C)C)C4)cc3c2)ccc1F (racemic) [Compound 544]
Result :: 39.8 to 316 pM

Query :: State measured Ki of the molecule Cc1cccc(-c2n[nH]cc2-c2ccc3ncc(NC(C)(C)CN4CCN(C)CC4)cc3n2)n1 [Compound 556] with recombinant human ALK5 (TGF-βR1) protein (Homo sapiens, UniProt P36897).
Result :: 398 to 3160 pM

* * *

- system-under-test: recombinant human ALK5 (TGF-βR1) protein (Homo sapiens, UniProt P36897)
- Construct: purchased Life Technologies PR9075A
- Sequence (P36897 34-503): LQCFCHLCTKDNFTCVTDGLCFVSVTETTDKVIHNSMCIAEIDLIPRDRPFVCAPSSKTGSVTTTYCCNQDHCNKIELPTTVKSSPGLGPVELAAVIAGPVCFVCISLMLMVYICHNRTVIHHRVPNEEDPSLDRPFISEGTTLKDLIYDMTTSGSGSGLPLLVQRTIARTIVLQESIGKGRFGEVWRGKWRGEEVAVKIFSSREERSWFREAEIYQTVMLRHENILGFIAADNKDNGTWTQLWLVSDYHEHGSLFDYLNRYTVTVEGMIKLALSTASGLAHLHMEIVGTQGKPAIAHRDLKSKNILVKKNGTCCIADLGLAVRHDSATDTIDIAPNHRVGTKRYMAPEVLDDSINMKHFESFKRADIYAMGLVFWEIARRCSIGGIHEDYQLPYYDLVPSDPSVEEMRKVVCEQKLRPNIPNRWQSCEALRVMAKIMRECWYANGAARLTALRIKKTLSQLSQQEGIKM
- assay-explanation: Biochemical ALK5 (TGF-βR1) assay to measure pKi (LANCE Ultra ULight kinase assay)
- details: apparent pKi from pIC50 by Cheng-Prusoff, read-out: ALK5 pKi (converted)
Recorded Ki by entry

COc1[nH]nc(-c2cccc(C)n2)c1-c1ccc2ncc(-c3cnn4c3NCC4)cc2n1 [Compound 371]: 0.398 to 3.16 nM
COC(=O)[C@@H]1CCN(CCNc2cnc3ccc(-c4nc[nH]c4-c4cccc(C)n4)cc3c2)C1 [Compound 729]: 0.0398 to 0.316 nM
Cc1cccc(-c2n[nH]cc2-c2ccc3ncc(-c4cc(C(F)(F)F)n[nH]4)cc3n2)n1 [Compound 139]: 0.0398 to 0.316 nM
Cc1cccc(-c2[nH]cnc2-c2ccc3ncc(-c4ccc(C(=O)O)nc4)cc3c2)n1 [Compound 541]: < 0.0316 nM
Cc1cccc(-c2[nH]cnc2-c2ccc3ncc(-c4ccc(C(=O)O[C@@H]5CCNC5)nc4)cc3c2)n1 [Compound 1110]: 0.0398 to 0.316 nM

Query :: // Input: COc1ncccc1-c1cnc2ccc(-c3c[nH]nc3-c3cccc(C)n3)nc2c1 [Compound 61] . Output its Ki only.
Result :: 0.0398 to 0.316 nM

Query :: Please supply the value of reported Ki for the item Cc1cccc(-c2n[nH]cc2-c2ccc3ncc(CNCCCN4CCOCC4)cc3n2)n1 [Compound 155]
Result :: 0.398 to 3.16 nM

Query :: # return recorded Ki for entry CC(=O)N[C@@H]1CC=C(c2cnc3ccc(-c4nc[nH]c4-c4cccc(C)n4)cc3c2)CC1 [Compound 380]
Result :: < 0.0316 nM

Query :: Check the records and state Ki for COc1nc(-c2ccc3ncc(C4=CCC5(CCNCC5)CC4)cc3c2)c(-c2cccc(C)n2)[nH]1 [Compound 1251]
Result :: < 0.0316 nM

Query :: # return recorded Ki for entry Cc1cccc(-c2[nH]cnc2-c2ccc3ncc(-c4csc(C(=O)OC[C@@H]5CCCN5)c4)cc3c2)n1 [Compound 1183]
Result :: < 0.0316 nM

Query :: Give the reported Ki for this compound. Cc1nc(-c2n[nH]cc2-c2ccc3ncc(N4CCC(N5CCN(C)CC5)CC4)cc3n2)ccc1F [Compound 539]
Result :: < 0.0316 nM

Query :: Look up and report measured Ki for this entry: CNCCn1cc(-c2ccnc3ccc(-c4c[nH]nc4-c4cccc(C)n4)cc23)cn1 [Compound 865]
Result :: 0.0398 to 0.316 nM

* * *

- system-under-test: recombinant human ALK5 (TGF-βR1) protein (Homo sapiens, UniProt P36897)
- Construct: purchased Life Technologies PR9075A
- assay-explanation: Biochemical ALK5 (TGF-βR1) assay to measure pKi (LANCE Ultra ULight kinase assay)
- details: apparent pKi from pIC50 by Cheng-Prusoff, read-out: ALK5 pKi (converted)
Reported Ki values for a set of compounds

Example cases with answers are listed next.
Cc1cccc(-c2[nH]cnc2-c2ccc3ncc(-c4ccc(C(=O)OC5CCNCC5)cn4)cc3c2)n1: < 0.0316 nM
Cc1cccc(-c2n[nH]cc2-c2ccc3nccc(NC(=O)CN4CCOCC4)c3n2)n1: 0.0398 to 0.316 nM
Cc1cccc(-c2[nH]cnc2-c2ccc3ncc(-c4cccc(N5CCNCC5)c4)cc3c2)n1: < 0.0316 nM
Cc1cccc(-c2n[nH]cc2-c2ccc3ncc(N4CC(N5CCOCC5)C4)cc3n2)n1: < 0.0316 nM
Cc1cccc(-c2n[nH]cc2-c2ccc3ncc(-c4ncco4)cc3n2)n1: 0.0398 to 0.316 nM

Query :: Give the reported value of Ki for this record: `Cc1cccc(-c2[nH]cnc2-c2ccc3nccc(C(=O)OCC4CCNCC4)c3c2)n1`
Result :: 0.398 to 3.16 nM

Query :: For the compound `Cc1cccc(-c2[nH]cnc2-c2ccc3ncc(NC(=O)C4CNC4)cc3c2)n1` , report Ki.
Result :: 0.0398 to 0.316 nM
